Numbers sourced from ChEMBL document CHEMBL1149519.

Test: Absolute bioavailability in Wistar rat at 10 mg/kg, po
Assay type: ADME, organism-based
Details: in vivo
Quantity Measured: bioavailability (%)
Reply numerically in %, unit not repeated.

`CN(C(=O)c1ccc(-c2ccc(C(F)(F)F)cc2)cc1)[C@H]1CCN(C(=O)N(C)[C@@H]2CCN(CCCc3ccc(Cl)cc3)C2)C1` yielded bioavailability of 5

###

Assay: Half life in Wistar rat plasma at 5 mg/kg, iv
Type: ADME, organism-based
Parameters: dose 5 mg/kg, route intravenous
Details: Wistar, plasma
Quantity Measured: half-life (h)
Give your result in h as a bare value.

Data point: `CN(C(=O)c1ccc(-c2ccc(C(F)(F)F)cc2)cc1)[C@H]1CCN(C(=O)N2CC[C@@H](NCCC(C)(C)c3ccc(Cl)cc3)C2)C1` ; half-life = 4.8
